experimentalSystem: human Nav1.7 (Homo sapiens (Human))
measurementDescription: Nav 1.7 in vitro PatchXpress (PX) assay
Type: cell-based
For each of the compounds below, state its IC50.
Give a bare numeral; the unit nM is implied.

Req: Give its IC50 value. Item: CS(=O)(=O)NC(=O)c1ccc(-c2cnc(OCCc3ccccc3)c(Cl)c2)c(OC(F)F)c1 [Example 467]
Resp: 78.8

Req: Record: Cc1cc(C(=O)NS(C)(=O)=O)c(F)cc1-c1cnc(Oc2cc(F)cc(F)c2)c(Cl)c1 [Example 630]
Resp: 77.8

Req: Record: Cc1cc(C(=O)NS(C)(=O)=O)c(F)cc1-c1cnc(Oc2ccc(C)c(F)c2F)c(Cl)c1 [Example 643]
Resp: 79.2

Req: Record: COc1cc(C(=O)NS(C)(=O)=O)ccc1-c1cnc(Oc2cc(F)ccc2Cl)c(Cl)c1 [Example 371]
Resp: 80

Req: Record: CC[C@@H](Oc1ncc(-c2cc(F)c(C(=O)NS(C)(=O)=O)cc2C)cc1Cl)c1ccc(F)cc1 [Example 639]
Resp: 70.4

Req: Record: COc1cc(C(=O)NS(C)(=O)=O)ccc1-c1cnc(Oc2cc(Cl)cc(C(F)(F)F)c2)c(Cl)c1 [Example 374]
Resp: 58.4

Req: Record: Cc1c(Cl)cccc1Oc1ncc(-c2ccc(C(=O)NS(C)(=O)=O)cc2OC(F)F)cc1Cl [Example 586]
Resp: 34.6

* * *

experimentalSystem: human Nav1.7 (Homo sapiens (Human), UniProt Q15858)
Sequence (Q15858 whole entry): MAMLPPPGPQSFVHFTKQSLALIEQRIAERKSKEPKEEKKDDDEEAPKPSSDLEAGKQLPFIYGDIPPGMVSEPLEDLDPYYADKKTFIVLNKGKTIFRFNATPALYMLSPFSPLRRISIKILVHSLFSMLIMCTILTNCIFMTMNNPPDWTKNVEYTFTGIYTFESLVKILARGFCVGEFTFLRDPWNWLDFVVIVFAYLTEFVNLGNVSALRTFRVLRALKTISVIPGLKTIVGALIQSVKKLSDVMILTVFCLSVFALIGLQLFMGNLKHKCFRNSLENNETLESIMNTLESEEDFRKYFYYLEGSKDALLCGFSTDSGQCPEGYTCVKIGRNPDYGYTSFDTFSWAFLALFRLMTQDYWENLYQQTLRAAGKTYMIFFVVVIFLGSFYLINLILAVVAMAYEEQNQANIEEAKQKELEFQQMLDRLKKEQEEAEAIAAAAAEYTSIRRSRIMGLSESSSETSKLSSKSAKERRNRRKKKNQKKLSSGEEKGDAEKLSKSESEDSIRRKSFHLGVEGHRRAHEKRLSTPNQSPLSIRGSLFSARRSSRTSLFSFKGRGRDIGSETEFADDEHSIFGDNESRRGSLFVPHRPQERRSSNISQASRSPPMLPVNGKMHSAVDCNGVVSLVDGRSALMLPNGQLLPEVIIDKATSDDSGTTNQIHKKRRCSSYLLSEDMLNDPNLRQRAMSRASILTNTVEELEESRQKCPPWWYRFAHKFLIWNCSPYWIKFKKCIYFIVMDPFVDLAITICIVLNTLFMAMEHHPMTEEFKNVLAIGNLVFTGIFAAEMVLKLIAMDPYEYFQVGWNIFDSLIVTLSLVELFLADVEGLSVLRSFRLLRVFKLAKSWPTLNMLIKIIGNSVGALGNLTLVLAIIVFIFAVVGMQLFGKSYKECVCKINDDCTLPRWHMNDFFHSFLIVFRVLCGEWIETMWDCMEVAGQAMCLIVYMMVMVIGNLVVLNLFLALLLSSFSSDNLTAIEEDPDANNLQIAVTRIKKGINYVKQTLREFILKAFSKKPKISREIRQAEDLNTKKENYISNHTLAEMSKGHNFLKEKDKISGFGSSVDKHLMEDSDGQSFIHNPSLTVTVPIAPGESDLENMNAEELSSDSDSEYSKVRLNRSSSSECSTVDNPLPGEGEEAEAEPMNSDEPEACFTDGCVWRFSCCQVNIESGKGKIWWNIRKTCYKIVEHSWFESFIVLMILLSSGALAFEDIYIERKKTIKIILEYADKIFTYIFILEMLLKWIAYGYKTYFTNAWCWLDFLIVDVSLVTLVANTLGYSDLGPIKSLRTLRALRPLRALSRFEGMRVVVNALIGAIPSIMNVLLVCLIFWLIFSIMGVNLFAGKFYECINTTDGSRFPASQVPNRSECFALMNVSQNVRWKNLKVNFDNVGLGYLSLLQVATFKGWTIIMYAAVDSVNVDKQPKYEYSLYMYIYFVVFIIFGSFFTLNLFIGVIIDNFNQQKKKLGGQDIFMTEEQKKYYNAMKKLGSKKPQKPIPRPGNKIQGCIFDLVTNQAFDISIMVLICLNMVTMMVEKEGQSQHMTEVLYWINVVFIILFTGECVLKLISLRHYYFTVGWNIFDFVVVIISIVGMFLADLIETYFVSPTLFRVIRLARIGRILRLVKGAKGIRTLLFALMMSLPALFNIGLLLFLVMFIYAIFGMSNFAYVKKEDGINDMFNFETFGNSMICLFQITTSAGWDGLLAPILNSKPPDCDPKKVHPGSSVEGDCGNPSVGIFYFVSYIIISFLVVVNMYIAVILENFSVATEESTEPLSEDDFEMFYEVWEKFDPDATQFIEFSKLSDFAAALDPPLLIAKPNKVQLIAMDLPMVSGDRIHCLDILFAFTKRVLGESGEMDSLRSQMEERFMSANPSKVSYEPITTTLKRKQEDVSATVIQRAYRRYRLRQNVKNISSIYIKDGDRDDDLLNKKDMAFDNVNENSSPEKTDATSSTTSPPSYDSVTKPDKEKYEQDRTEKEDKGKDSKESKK
measurementDescription: Nav 1.7 in vitro PatchXpress (PX) assay
Type: cell-based
propertyMeasured: IC50 (nM)
Give a bare numeral; the unit nM is implied.

Req: Give its IC50 value. Item: CC[C@@H](Oc1ncc(-c2cc(F)c(C(=O)NS(C)(=O)=O)cc2Cl)cc1Cl)c1ccc(F)cc1 [Example 596]
Resp: 87.9

Req: Record: COc1cc(C(=O)NS(C)(=O)=O)c(F)cc1-c1cnc(Oc2cc(F)cc(F)c2F)c(Cl)c1 [Example 700]
Resp: 91.3

Req: Record: Cc1cc(Oc2ncc(-c3ccc(C(=O)NS(C)(=O)=O)cc3OC(F)F)cc2Cl)ccc1Cl [Example 453]
Resp: 60.3

Req: Record: Cc1cc(C(=O)NS(C)(=O)=O)c(F)cc1-c1cnc(Oc2ccc(C)c3c2CCC3)c(Cl)c1 [Example 662]
Resp: 88.2

Req: Record: CS(=O)(=O)NC(=O)c1cc(Cl)c(-c2cnc(OCC3CCCC3)c(Cl)c2)cc1F [Example 600]
Resp: 91.9
